test: Meglumine iothalamate clearance from one plasma sample by first standard function, dog; type: in vivo, female beagle dogs; conditions: female, beagle, dog, plasma, intravenous, 0.3 mℓ/kg, healthy dog 1919 (two tests); first standard function (Fig. 18); per blood collection time (20-90 min); read-out: Method of Present Invention: Clearance (2)
value kind: clearance (mL/min)
Give bare numbers, in mL/min.

Challenge: Need clearance, item CNC(=O)c1c(I)c(NC(C)=O)c(I)c(C(=O)O)c1I [Iothalamic Acid]
Response given: 52.1
